Assay: Bioavailability in human at 12.5 ug, po
Format: ADME, organism-based
Conditions: in vivo

structure.as.smiles | bioavailability (%)
O=C(O)COc1cccc2c1CC[C@](O)(COC(=O)N(c1ccccc1)c1ccccc1)C2 | 55

###

Test: Cmax in human at 12.5 ug, po
Type: ADME, organism-based
Parameters: dose 12.5 ug, route oral
Settings: in vivo

structure.as.smiles | u | Cmax
O=C(O)COc1cccc2c1CC[C@](O)(COC(=O)N(c1ccccc1)c1ccccc1)C2 | ng/mL | 0.157

###

Experiment: Cmax in rat at 10 mg/kg, po
Type: ADME, organism-based
Design: dose 10 mg/kg, route oral
Settings: in vivo
readout: Cmax (ng/mL)

structure.as.smiles | number
O=C(O)COc1cccc2c1CC[C@](O)(COC(=O)N(c1ccc(F)cc1)c1ccc(F)cc1)C2 | 575
O=C(O)COc1cccc2c1CC[C@](O)(COC(=O)N(c1ccccc1)c1ccc(F)cc1)C2 | 434
O=C(O)COc1cccc2c1CC[C@](O)(COC(=O)N(c1ccccc1)c1ccccc1)C2 | 282

###

# maps each entry to its CLint scaled
Experiment: Intrinsic clearance in rat liver microsomes after 60 mins
Assay type: ADME, Microsome

structure.as.smiles | CLint scaled, mL/min/kg
O=C(O)COc1cccc2c1CC[C@](O)(COC(=O)N(c1ccccc1)c1ccc(Br)cc1)C2 | 12.3
O=C(O)COc1cccc2c1CC[C@](O)(COC(=O)N(c1ccc(F)cc1)c1ccccc1F)C2 | 11.8
O=C(O)COc1cccc2c1CC[C@](O)(COC(=O)N(c1ccc(F)cc1)c1ccc(F)cc1)C2 | 4.6
O=C(O)COc1cccc2c1CC[C@](O)(COC(=O)N(c1ccc(F)cc1)c1cccc(F)c1)C2 | 11.7
O=C(O)COc1cccc2c1CC[C@](O)(COC(=O)N(c1ccccc1F)c1ccccc1F)C2 | 44.8
O=C(O)COc1cccc2c1CC[C@](O)(COC(=O)N(c1ccccc1)c1ccc(F)cc1)C2 | 10.3
O=C(O)COc1cccc2c1CC[C@](O)(COC(=O)N(c1ccccc1)c1ccccc1)C2 | 31.9
O=C(O)COc1cccc2c1CC[C@](O)(COC(=O)N(c1cccc(F)c1)c1cccc(F)c1)C2 | 13.5

###

Experiment: Beta half life in rat at 10 mg/kg, iv
Assay type: ADME, organism-based
Parameters: dose 10 mg/kg, route intravenous
Details: in vivo
readout: half-life (h)

structure.as.smiles | u | number
O=C(O)COc1cccc2c1CC[C@](O)(COC(=O)N(c1ccccc1)c1ccc(F)cc1)C2 | h | 1.6
O=C(O)COc1cccc2c1CC[C@](O)(COC(=O)N(c1ccc(F)cc1)c1ccc(F)cc1)C2 | h | 3

###

Assay: Total clearance in rat at 10 mg/kg, iv
Assay type: ADME, organism-based
Set-up: dose 10 mg/kg, route intravenous
Settings: in vivo
Measured clearance, listed per entry.
readout: clearance

structure.as.smiles | result
O=C(O)COc1cccc2c1CC[C@](O)(COC(=O)N(c1ccc(F)cc1)c1ccc(F)cc1)C2 | 30.3 mL/min/kg
O=C(O)COc1cccc2c1CC[C@](O)(COC(=O)N(c1ccccc1)c1ccc(F)cc1)C2 | 32.9 mL/min/kg

###

Species: Rattus norvegicus
Test: Inhibition of ADP-induced platelet aggregation in rat platelet rich plasma
Assay type: functional, organism-based
Measured IC50 of individual entries
readout: IC50

compound | readout | result
O=C(O)COc1cccc2c1CC[C@](O)(COC(=O)N(c1ccccc1)c1ccc(F)cc1)C2 | IC50 | 4.58 µM
O=C(O)COc1cccc2c1CC[C@](O)(COC(=O)N(c1ccc(F)cc1)c1ccc(F)cc1)C2 | IC50 | > 10 µM
O=C(O)COc1cccc2c1CC[C@](O)(COC(=O)N(c1cccc(F)c1)c1cccc(F)c1)C2 | IC50 | > 10 µM
O=C(O)COc1cccc2c1C(O)C[C@](O)(COC(=O)N(c1ccccc1)c1ccccc1)C2 (some centres undefined) | IC50 | > 10 µM
O=C(O)COc1cccc2c1CC[C@](O)(COC(=O)N(c1ccccc1)c1ccc(Br)cc1)C2 | IC50 | 6.49 µM
O=C(O)COc1cccc2c1CC[C@](O)(COC(=O)N(c1ccc(F)cc1)c1ccccc1F)C2 | IC50 | 5.11 µM
O=C(O)COc1cccc2c1CC[C@](O)(COC(=O)N(c1ccc(F)cc1)c1cccc(F)c1)C2 | IC50 | > 10 µM
O=C(O)COc1cccc2c1CC[C@](O)(COC(=O)N(c1ccccc1)c1ccccc1)[C@H]2O | IC50 | > 10 µM
O=C(O)COc1cccc2c1CC[C@](O)(COC(=O)N(c1ccccc1)c1ccc(O)cc1)C2 | IC50 | 2.49 µM

###

Test: Blood to plasma ratio in human at 12.5 ug, po
Format: ADME, organism-based
Conditions: read-out: BPR

structure.as.smiles | blood plasma ratio
O=C(O)COc1cccc2c1CC[C@](O)(COC(=O)N(c1ccccc1)c1ccccc1)C2 | 0.57

###

System: Rattus norvegicus
Assay: AUC in rat at 10 mg/kg, po
Assay type: ADME, organism-based, Plasma
Design: dose 10 mg/kg, route oral
Conditions: in vivo
readout: AUC (ng·h/mL)

structure.as.smiles | readout | number
O=C(O)COc1cccc2c1CC[C@](O)(COC(=O)N(c1ccccc1)c1ccccc1)C2 | AUC | 601
O=C(O)COc1cccc2c1CC[C@](O)(COC(=O)N(c1ccc(F)cc1)c1ccc(F)cc1)C2 | AUC | 1610
O=C(O)COc1cccc2c1CC[C@](O)(COC(=O)N(c1ccccc1)c1ccc(F)cc1)C2 | AUC | 961
